target: adenosine receptor 2A (A2A) (Homo sapiens, UniProt P29274); construct: CEREP (Poitiers, France), paid service; assay: Functional antagonist assay monitoring cAMP (CEREP); type: cell-based; details: concentration-response up to 10 μM; read-out: IC50, cAMP;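 also: eight-point concentration-response from 0 to 10 µM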
Sequence (P29274 whole entry): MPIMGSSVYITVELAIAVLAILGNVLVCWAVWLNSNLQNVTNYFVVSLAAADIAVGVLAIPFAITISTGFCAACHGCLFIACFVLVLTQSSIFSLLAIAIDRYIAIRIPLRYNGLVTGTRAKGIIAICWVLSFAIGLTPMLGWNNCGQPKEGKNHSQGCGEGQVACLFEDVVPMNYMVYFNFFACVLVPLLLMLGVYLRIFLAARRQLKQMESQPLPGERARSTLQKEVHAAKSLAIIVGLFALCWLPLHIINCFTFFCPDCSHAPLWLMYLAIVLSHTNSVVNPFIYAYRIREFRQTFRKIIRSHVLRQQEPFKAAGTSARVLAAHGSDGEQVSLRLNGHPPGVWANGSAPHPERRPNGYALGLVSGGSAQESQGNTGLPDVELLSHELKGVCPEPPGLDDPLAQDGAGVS
Each entry below carries its reported inhibition at up to 10 µM.

Please review the entries below; each comes with its answer.
- COMPOUND: "CCCSc1nc(N[C@@H]2C[C@H]2c2ccc(F)c(F)c2)c2nnn([C@@H]3C[C@H](OCCO)[C@@H](O)[C@H]3O)c2n1"
  OBS VALUE: "< 50%"
- COMPOUND: "CCC1=C(C)CN(C(=O)NCCc2ccc(S(=O)(=O)NC(=O)N[C@H]3CC[C@H](C)CC3)cc2)C1=O [Glimepiride]"
  OBS VALUE: "< 50%"
- COMPOUND: "Nc1nc(N)c2nc(-c3ccccc3)c(N)nc2n1"
  OBS VALUE: "< 50%"
- COMPOUND: "NC(=O)OCC(COC(N)=O)c1ccccc1 [Felbamate]"
  OBS VALUE: "< 50%"
- COMPOUND: "COc1ccc(OC)c(C(O)CNC(=O)CN)c1 (centres unmarked)"
  OBS VALUE: "< 50%"
- COMPOUND: "CCCNCC(O)COc1ccccc1C(=O)CCc1ccccc1 (centres unmarked)"
  OBS VALUE: "< 50%"
- COMPOUND: "Cc1cc2c(OCC(CNC(C)(C)C)OC(=O)c3ccccc3)cccc2[nH]1 (centres unmarked)"
  OBS VALUE: "< 50%"

Enquiry: Param item = "Cc1onc(-c2c(F)cccc2Cl)c1C(=O)N[C@@H]1C(=O)N2[C@@H]1SC(C)(C)[C@@H]2C(=O)O" ; retrieve measured inhibition at up to 10 µM.
Return: < 50%

###

target: adenosine receptor 2A (A2A) (Homo sapiens); construct: CEREP (Poitiers, France), paid service; test: Functional assay monitoring Ca2+ flux (DiscoveRx); format: cell-based; details: concentration-response up to 10 μM; read-out: IC50, Ca2+
OBSERVABLE: inhibition at up to 10 µM

Known inhibition at up to 10 µM results, listed for orientation:
- MOLECULE: "CN(C)CCC(c1ccccc1)c1ccccn1 (stereo not shown)"
  OBS VALUE: "< 50%"
- MOLECULE: "CCC1=C(C)CN(C(=O)NCCc2ccc(S(=O)(=O)NC(=O)N[C@H]3CC[C@H](C)CC3)cc2)C1=O [Glimepiride]"
  OBS VALUE: "< 50%"
- MOLECULE: "Cc1cc(C#N)cc(C)c1Oc1nc(Nc2ccc(C#N)cc2)nc(N)c1Br"
  OBS VALUE: "< 50%"
- MOLECULE: "C[S+](CC[C@H](N)C(=O)[O-])C[C@H]1O[C@@H](n2cnc3c(N)ncnc32)[C@H](O)[C@@H]1O (stereo partly shown)"
  OBS VALUE: "< 50%"
- MOLECULE: "Cc1ccc2c(c1)c1c3n2CCNC3CCC1 (stereo not shown)"
  OBS VALUE: "< 50%"

Enquiry: Item "Nc1ccc(O)c(C(=O)O)c1" with adenosine receptor 2A (A2A) (Homo sapiens) - inhibition at up to 10 µM?
Return: < 50%

Enquiry: For adenosine receptor 2A (A2A) (Homo sapiens), provide inhibition at up to 10 µM of "CC1=C(C(=O)O)N2C(=O)[C@@H](NC(=O)[C@H](N)c3ccc(O)cc3)[C@H]2SC1" please.
Return: < 50%

Enquiry: Lab note: need inhibition at up to 10 µM with adenosine receptor 2A (A2A) (Homo sapiens) for entry "Cc1c(O)cccc1C(=O)N[C@@H](CSc1ccccc1)[C@H](O)CN1C[C@H]2CCCC[C@H]2C[C@H]1C(=O)NC(C)(C)C" , please look it up.
Return: < 50%

Enquiry: Give adenosine receptor 2A (A2A) (Homo sapiens) inhibition at up to 10 µM for "O=C1CCCC(=O)C1C(=O)c1ccc(C(F)(F)F)cc1[N+](=O)[O-]"
Return: < 50%

Enquiry: Fill in the recorded inhibition at up to 10 µM for this molecule, with adenosine receptor 2A (A2A) (Homo sapiens) as test system: "CCCSc1nc(N[C@@H]2C[C@H]2c2ccc(F)c(F)c2)c2nnn([C@@H]3C[C@H](OCCO)[C@@H](O)[C@H]3O)c2n1"
Return: < 50%
